# STUDY_TARGET: T1, SNTB1, Q13884
# T1 sequence (Q13884 107-205, limits assumed, looked up): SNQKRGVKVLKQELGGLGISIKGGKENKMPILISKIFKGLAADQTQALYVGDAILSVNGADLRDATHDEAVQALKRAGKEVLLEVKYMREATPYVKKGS
# PROTOCOL_NOTES: holdup assay
# Parameters: key: below the threshold = too weak to quantify, mostly under pKd 3.1 to 4
# MEASUREMENT_CONTEXT: plain residues with an end cap or a label only (N-terminal biotin on a linker: ado-ado)

- BINDER: "IKAIVDLTGL [TRAF2, Q12933]"
  pKd: "below the threshold"
- BINDER: "PAPSSGKDYV [CLDN1, O95832]"
  pKd: "below the threshold"
- BINDER: "LRSPRTPSEV [OR10G3, Q8NGC4]"
  pKd: "below the threshold"
- BINDER: "GNSVLKSTQF [SLC22A12, Q96S37]"
  pKd: "below the threshold"
